- Measured on: FGFR4 (Homo sapiens (Human), UniProt P22455)
- Sequence (P22455 22-802): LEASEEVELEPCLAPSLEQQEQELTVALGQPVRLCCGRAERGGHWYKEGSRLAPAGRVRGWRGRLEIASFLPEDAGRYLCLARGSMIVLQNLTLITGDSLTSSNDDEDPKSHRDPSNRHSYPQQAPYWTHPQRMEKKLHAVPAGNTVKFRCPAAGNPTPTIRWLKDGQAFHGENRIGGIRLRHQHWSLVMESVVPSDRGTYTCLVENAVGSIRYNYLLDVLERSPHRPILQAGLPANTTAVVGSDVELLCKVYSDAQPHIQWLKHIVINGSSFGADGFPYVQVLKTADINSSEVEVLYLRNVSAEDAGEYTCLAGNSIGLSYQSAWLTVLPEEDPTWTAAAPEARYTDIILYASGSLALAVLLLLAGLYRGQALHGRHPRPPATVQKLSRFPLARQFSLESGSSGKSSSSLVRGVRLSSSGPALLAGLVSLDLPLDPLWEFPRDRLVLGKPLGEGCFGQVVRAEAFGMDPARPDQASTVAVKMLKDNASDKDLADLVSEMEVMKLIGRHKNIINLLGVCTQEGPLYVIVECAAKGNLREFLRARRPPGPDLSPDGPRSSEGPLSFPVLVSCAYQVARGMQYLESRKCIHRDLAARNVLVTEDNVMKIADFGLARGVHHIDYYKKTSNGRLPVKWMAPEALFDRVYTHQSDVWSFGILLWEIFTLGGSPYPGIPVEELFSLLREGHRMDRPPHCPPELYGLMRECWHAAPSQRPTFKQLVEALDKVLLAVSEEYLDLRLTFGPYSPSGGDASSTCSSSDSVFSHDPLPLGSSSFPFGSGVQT
- Procedure text: FGFR Enzymatic Assay (FRET peptide phosphorylation), FGFR4
- Condition set: FGFR4 IC50 (nM), pre-incubated for 5 to 10 minutes
Measured property: IC50

Some entries whose results are on file:
C=CC(=O)N(C)c1cc2c(cn1)CN(c1c(F)c(OC)cc(OC)c1F)C(=O)C21CC1	10 to 30 nM
C=CC(=O)NC1COCC1Nc1cc2c(cn1)CN(c1c(F)c(OC)cc(OC)c1F)C(=O)C21CC1 (racemic)	< 10 nM

Please give the measured IC50 for this compound: C=CC(=O)Nc1ccccc1Nc1cc2c(cn1)CN(c1c(F)c(OC)cc(OC)c1F)C(=O)C21CCOC1 (stereo not drawn)
10 to 30 nM

Please give the measured IC50 for this compound: `C=CC(=O)N[C@H]1CCC[C@H]1Oc1ncc2c(n1)C1(CC1)C(=O)N(c1c(F)c(OC)cc(OC)c1F)C2`
30 to 200 nM

Please give the measured IC50 for this compound: C=CC(=O)NC1CCCCC1Nc1cc2c(cn1)CN(c1c(F)c(OC)cc(OC)c1F)C(=O)C21CC1 (racemic)
30 to 200 nM

Please give the measured IC50 for this compound: `C=CC(=O)Nc1ccccc1Nc1cc2c(cn1)CN(c1c(F)c(OC)cc(OC)c1F)C(=O)C2(C)C`
10 to 30 nM
